meta.source: ChEMBL document CHEMBL3988442

- testTarget: Proteasome subunit beta (Trypanosoma cruzi)
- Sequence (whole entry): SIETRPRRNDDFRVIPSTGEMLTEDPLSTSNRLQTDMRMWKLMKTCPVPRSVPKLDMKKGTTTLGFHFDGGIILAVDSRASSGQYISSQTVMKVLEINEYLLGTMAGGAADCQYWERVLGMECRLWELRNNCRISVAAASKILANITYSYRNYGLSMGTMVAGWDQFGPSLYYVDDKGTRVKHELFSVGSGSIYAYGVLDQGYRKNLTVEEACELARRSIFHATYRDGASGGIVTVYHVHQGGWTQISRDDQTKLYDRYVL
- methodSummary: Trypanosoma cruzi proteasome chymotrypsin-like activity (TcProtChymo) assay.
- Assay type: functional
- Parameters: scale not given: in the data most compounds retested in dose-response had high values
- conditionsUsed: 9.37 µM
Exercise: state measured Percent Effect for each of the molecules provided.
Use % as the unit, but write only the number.

For O=C(CN1CCc2cncnc2C1)NCCOc1ccccc1 on Proteasome subunit beta (Trypanosoma cruzi), measured Percent Effect was 0.592

For Cn1cc(CN2CC[C@H]3OCC[C@@H](C(=O)N4CCCCO4)[C@@H]3C2)cn1 on Proteasome subunit beta (Trypanosoma cruzi), measured Percent Effect was 11.3

For Cc1ccc(-c2noc(CN3CCOC(CN(C)C)C3)n2)cc1F (configuration not stated) on Proteasome subunit beta (Trypanosoma cruzi), measured Percent Effect was -0.539

For CC(=O)NC1CCCN(C(=O)NCc2ccc(-c3ccn[nH]3)cc2)C1 (configuration not stated) on Proteasome subunit beta (Trypanosoma cruzi), measured Percent Effect was 12.4

For CCCOc1cccc(CNC(=O)CN2CCN(C)CC2C)c1 (configuration not stated) on Proteasome subunit beta (Trypanosoma cruzi), measured Percent Effect was 1.98

For c1cnnc(N2CCCC(NCc3ccc(-n4ccnc4)cc3)C2)c1 (configuration not stated) on Proteasome subunit beta (Trypanosoma cruzi), measured Percent Effect was 8.33

For CN(C)C(=O)NC1COC2(CCN(C(=O)Nc3ccccc3)CC2)C1 (configuration not stated) on Proteasome subunit beta (Trypanosoma cruzi), measured Percent Effect was 8.72

For CNc1ccc(CC2CCCN(C(=O)c3cnc(C)nc3)C2)nn1 (configuration not stated) on Proteasome subunit beta (Trypanosoma cruzi), measured Percent Effect was 17.1

For COc1ccc(CN(C)C(=O)NCc2c(C)cc(C)[nH]c2=O)cc1 on Proteasome subunit beta (Trypanosoma cruzi), measured Percent Effect was 2.12

For CCn1ccnc1CN1CCCN(C(=O)c2cccc(C#N)c2)CC1 on Proteasome subunit beta (Trypanosoma cruzi), measured Percent Effect was 0.939

For Cc1cccc(C)c1NC(=O)CCNC(=O)c1ccoc1 on Proteasome subunit beta (Trypanosoma cruzi), measured Percent Effect was 20.3

For COc1cccc(CNc2c(C)cnc3c2c(=O)n(C)c(=O)n3C)c1 on Proteasome subunit beta (Trypanosoma cruzi), measured Percent Effect was 15.4

For O=C(NCCNc1cnccn1)N1CCN(Cc2cccnc2)CC1 on Proteasome subunit beta (Trypanosoma cruzi), measured Percent Effect was 15.1

For CS(=O)(=O)N1CCOCC2(CN(Cc3ccco3)CCO2)C1 (configuration not stated) on Proteasome subunit beta (Trypanosoma cruzi), measured Percent Effect was 5.39

For CC(=O)N1CCC2(CCCN(C(=O)c3ccccc3)C2)C1 (configuration not stated) on Proteasome subunit beta (Trypanosoma cruzi), measured Percent Effect was 1.85

For CNc1cc(C2CCCN2Cc2ccccc2OCC(=O)O)ccn1 (configuration not stated) on Proteasome subunit beta (Trypanosoma cruzi), measured Percent Effect was 2.34

For CC(C)=CCN(C)C1CCCN(Cc2noc(C)n2)C1 (configuration not stated) on Proteasome subunit beta (Trypanosoma cruzi), measured Percent Effect was 9.7

For CC(C)c1nn(C)c(N(C)C)c1CNCCC(=O)N(C)C on Proteasome subunit beta (Trypanosoma cruzi), measured Percent Effect was 5.16

For O=C(NCCN1CCCCC1)c1ccoc1 on Proteasome subunit beta (Trypanosoma cruzi), measured Percent Effect was 4.21

For O=C(CC1CCCC1)NCCn1ccc(-c2ccccn2)n1 on Proteasome subunit beta (Trypanosoma cruzi), measured Percent Effect was -2.09

For CN(C)C(=O)COC[C@]12COC[C@H]1CN(Cc1ccoc1)C2 on Proteasome subunit beta (Trypanosoma cruzi), measured Percent Effect was 2.49

For COc1cccc(-c2noc(-c3ccc(NCC4CC4)nc3)n2)c1OC on Proteasome subunit beta (Trypanosoma cruzi), measured Percent Effect was 11

For CC(C)c1cc(N2CCC(CCC(=O)NC3CC3)CC2)n2nccc2n1 on Proteasome subunit beta (Trypanosoma cruzi), measured Percent Effect was 9.76

For CCn1cnnc1CNC(=O)CCC(=O)c1ccc2c(c1)OCCO2 on Proteasome subunit beta (Trypanosoma cruzi), measured Percent Effect was 15.3

For O=C(NCCc1ccc(Cl)s1)NCc1nnc2n1CCC2 on Proteasome subunit beta (Trypanosoma cruzi), measured Percent Effect was 15.5

For CC1COCCN1Cc1nc(-c2cccc(Br)c2)no1 (configuration not stated) on Proteasome subunit beta (Trypanosoma cruzi), measured Percent Effect was 17.7

For Cc1cc(CN2CCCC2c2c(C)nn(C)c2Cl)no1 (configuration not stated) on Proteasome subunit beta (Trypanosoma cruzi), measured Percent Effect was 13.4
